System: NCI-H1703
assay: relative viability (nuclei count vs DMSO), 5 days (fraction); higher = more cells survive
condition.description: first compound 0.1265 µM
metric: relative viability

Recorded results for 3 molecules are shown here.
molecule	relative viability
O=C(O)c1ccc(-c2c[nH]c3ncc(-c4ccccc4)cc23)cc1C1CCCC1 + CS(=O)(=O)CCNCc1ccc(-c2ccc3ncnc(Nc4ccc(OCc5cccc(F)c5)c(Cl)c4)c3c2)o1 [Lapatinib] (partner 2 µM)	1.44
O=C(O)c1ccc(-c2c[nH]c3ncc(-c4ccccc4)cc23)cc1C1CCCC1 + CS(=O)(=O)N1CCN(Cc2cc3nc(-c4cccc5[nH]ncc45)nc(N4CCOCC4)c3s2)CC1 [Pictilisib] (partner 1 µM)	0.298
O=C(O)c1ccc(-c2c[nH]c3ncc(-c4ccccc4)cc23)cc1C1CCCC1 + COc1cc2c(Oc3ccc(NC(=O)C4(C(=O)Nc5ccc(F)cc5)CC4)cc3F)ccnc2cc1OCCCN1CCOCC1 [Foretinib] (partner 0.25 µM)	0.313

// switching to the query molecule
In: Tell me measured relative viability for O=C(O)c1ccc(-c2c[nH]c3ncc(-c4ccccc4)cc23)cc1C1CCCC1 + NC(=O)Nc1cc(-c2cccc(F)c2)sc1C(=O)N[C@H]1CCCNC1 [AZD7762] (partner 0.2 µM) please.
Out: 0.0651

###

Tested on: LK-2
assay: relative viability (nuclei count vs DMSO), 5 days (fraction); higher = more cells survive
condition.description: first compound 0.04 µM
metric: relative viability
Give the value as a plain number.

Check out these entries, answers already filled in.
compound	relative viability
O=C(O)c1ccc(-c2c[nH]c3ncc(-c4ccccc4)cc23)cc1C1CCCC1 + O=C(CCCCCCC(=O)Nc1ccccc1)NO [Vorinostat] (partner 1 µM)	0.333
O=C(O)c1ccc(-c2c[nH]c3ncc(-c4ccccc4)cc23)cc1C1CCCC1 + Nc1nc2[nH]cc(CCc3ccc(C(=O)N[C@@H](CCC(=O)O)C(=O)O)cc3)c2c(=O)[nH]1 [Pemetrexed] (partner 0.2 µM)	0.172
O=C(O)c1ccc(-c2c[nH]c3ncc(-c4ccccc4)cc23)cc1C1CCCC1 + Cc1nc(Nc2ncc(C(=O)Nc3c(C)cccc3Cl)s2)cc(N2CCN(CCO)CC2)n1 [Dasatinib] (partner 0.075 µM)	0.362

Next compound, please.
In: State recorded relative viability with LK-2, entry O=C(O)c1ccc(-c2c[nH]c3ncc(-c4ccccc4)cc23)cc1C1CCCC1 + CCNC(=O)c1noc(-c2cc(C(C)C)c(O)cc2O)c1-c1ccc(CN2CCOCC2)cc1 [Luminespib] (partner 0.01 µM) , no comment.
Out: 0.157

###

Tested on: HARA
assay: relative viability (nuclei count vs DMSO), 5 days (fraction); higher = more cells survive
condition.description: first compound 8 µM
Reported relative viability values for the following compounds.
Give a plain numeric answer without units written out.

compound	metric	observed.measurement
C=C1C(=O)O[C@@H](CCCCCCCC)[C@@H]1C(=O)O [C-75] + CCNC(=O)c1noc(-c2cc(C(C)C)c(O)cc2O)c1-c1ccc(CN2CCOCC2)cc1 [Luminespib] (partner 0.01 µM)	relative viability	0.612

In: State its relative viability for this compound: C=C1C(=O)O[C@@H](CCCCCCCC)[C@@H]1C(=O)O [C-75] + CS(=O)(=O)CCNCc1ccc(-c2ccc3ncnc(Nc4ccc(OCc5cccc(F)c5)c(Cl)c4)c3c2)o1 [Lapatinib] (partner 2 µM)
Out: 0.825

In: Fill in relative viability for record C=C1C(=O)O[C@@H](CCCCCCCC)[C@@H]1C(=O)O [C-75] + Cc1cc(Nc2cc(N3CCN(C)CC3)nc(Sc3ccc(NC(=O)C4CC4)cc3)n2)n[nH]1 [Tozasertib] (partner 0.1 µM)
Out: 0.145

In: Tell me its relative viability given C=C1C(=O)O[C@@H](CCCCCCCC)[C@@H]1C(=O)O [C-75] + N=C(N)NC(=N)NCCc1ccccc1 [Phenformin] (partner 250 µM) as the entry.
Out: 0.434

In: Retrieve relative viability measured for C=C1C(=O)O[C@@H](CCCCCCCC)[C@@H]1C(=O)O [C-75] + O=C(c1cc(Cc2n[nH]c(=O)c3ccccc23)ccc1F)N1CCN(C(=O)C2CC2)CC1 [Olaparib] (partner 8 µM) and print it.
Out: 0.715

In: Quote relative viability reported for C=C1C(=O)O[C@@H](CCCCCCCC)[C@@H]1C(=O)O [C-75] + COc1cccc2cc(-c3nc([C@H]4CC[C@H](C(=O)O)CC4)n4ncnc(N)c34)[nH]c12 [OSI-027] (partner 0.5 µM) please.
Out: 0.441

###

Test system: NCI-H1355
assay: relative viability (nuclei count vs DMSO), 5 days (fraction); higher = more cells survive
condition.description: first compound 0.08 µM
metric: relative viability
Give the figure only, with no unit attached.

For orientation, consider the following solved cases.
compound	relative viability
Oc1nc(-c2ccc(C(F)(F)F)cc2)nc2c1CSCC2 [XAV939] + O=C(c1cc(Cc2n[nH]c(=O)c3ccccc23)ccc1F)N1CCN(C(=O)C2CC2)CC1 [Olaparib] (partner 8 µM)	0.729
Oc1nc(-c2ccc(C(F)(F)F)cc2)nc2c1CSCC2 [XAV939] + CC(=O)Nc1cccc(-n2c(=O)n(C3CC3)c(=O)c3c(Nc4ccc(I)cc4F)n(C)c(=O)c(C)c32)c1 [Trametinib] (partner 0.02 µM)	0.367
Oc1nc(-c2ccc(C(F)(F)F)cc2)nc2c1CSCC2 [XAV939] + Nc1nc2[nH]cc(CCc3ccc(C(=O)N[C@@H](CCC(=O)O)C(=O)O)cc3)c2c(=O)[nH]1 [Pemetrexed] (partner 0.2 µM)	1.02
Oc1nc(-c2ccc(C(F)(F)F)cc2)nc2c1CSCC2 [XAV939] + CCNC(=O)c1noc(-c2cc(C(C)C)c(O)cc2O)c1-c1ccc(CN2CCOCC2)cc1 [Luminespib] (partner 0.01 µM)	0.814

Next up:
In: Indicate its recorded relative viability; the compound in question is Oc1nc(-c2ccc(C(F)(F)F)cc2)nc2c1CSCC2 [XAV939] + COc1cccc2cc(-c3nc([C@H]4CC[C@H](C(=O)O)CC4)n4ncnc(N)c34)[nH]c12 [OSI-027] (partner 0.5 µM)
Out: 0.396

###

Test system: EKVX
assay: relative viability (nuclei count vs DMSO), 5 days (fraction); higher = more cells survive
condition.description: first compound 0.1581 µM
Measured relative viability values are reported for all entries that follow.
Returns: the value as a bare number; no unit string appended.

In: # return recorded relative viability for entry CC1(C)CCC(c2ccc(Cl)cc2)=C(CN2CCN(c3ccc(C(=O)NS(=O)(=O)c4ccc(N[C@H](CCN5CCOCC5)CSc5ccccc5)c(S(=O)(=O)C(F)(F)F)c4)cc3)CC2)C1 [Navitoclax] + NC(=O)Nc1cc(-c2cccc(F)c2)sc1C(=O)N[C@H]1CCCNC1 [AZD7762] (partner 0.2 µM)
Out: 0.729

In: Tell me relative viability reported for CC1(C)CCC(c2ccc(Cl)cc2)=C(CN2CCN(c3ccc(C(=O)NS(=O)(=O)c4ccc(N[C@H](CCN5CCOCC5)CSc5ccccc5)c(S(=O)(=O)C(F)(F)F)c4)cc3)CC2)C1 [Navitoclax] + CCNC(=O)c1noc(-c2cc(C(C)C)c(O)cc2O)c1-c1ccc(CN2CCOCC2)cc1 [Luminespib] (partner 0.01 µM)
Out: 0.784

In: Specify relative viability for CC1(C)CCC(c2ccc(Cl)cc2)=C(CN2CCN(c3ccc(C(=O)NS(=O)(=O)c4ccc(N[C@H](CCN5CCOCC5)CSc5ccccc5)c(S(=O)(=O)C(F)(F)F)c4)cc3)CC2)C1 [Navitoclax] + C[C@@H](Oc1cc(-c2cnn(C3CCNCC3)c2)cnc1N)c1c(Cl)ccc(F)c1Cl [Crizotinib] (partner 1 µM) and stop.
Out: 0.93

###

Tested on: NCI-H3122
assay: relative viability (nuclei count vs DMSO), 5 days (fraction); higher = more cells survive
condition.description: first compound 0.1581 µM
Let's look at some molecules and their measured relative viability.

Example entries begin here.
molecule	relative viability
CC1(C)CCC(c2ccc(Cl)cc2)=C(CN2CCN(c3ccc(C(=O)NS(=O)(=O)c4ccc(N[C@H](CCN5CCOCC5)CSc5ccccc5)c(S(=O)(=O)C(F)(F)F)c4)cc3)CC2)C1 [Navitoclax] + O=C(CCCCCCC(=O)Nc1ccccc1)NO [Vorinostat] (partner 1 µM)	1.02
CC1(C)CCC(c2ccc(Cl)cc2)=C(CN2CCN(c3ccc(C(=O)NS(=O)(=O)c4ccc(N[C@H](CCN5CCOCC5)CSc5ccccc5)c(S(=O)(=O)C(F)(F)F)c4)cc3)CC2)C1 [Navitoclax] + CS(=O)(=O)CCNCc1ccc(-c2ccc3ncnc(Nc4ccc(OCc5cccc(F)c5)c(Cl)c4)c3c2)o1 [Lapatinib] (partner 2 µM)	0.892
CC1(C)CCC(c2ccc(Cl)cc2)=C(CN2CCN(c3ccc(C(=O)NS(=O)(=O)c4ccc(N[C@H](CCN5CCOCC5)CSc5ccccc5)c(S(=O)(=O)C(F)(F)F)c4)cc3)CC2)C1 [Navitoclax] + O=C(c1cc(Cc2n[nH]c(=O)c3ccccc23)ccc1F)N1CCN(C(=O)C2CC2)CC1 [Olaparib] (partner 8 µM)	0.655

We now examine a further molecule.
In: Please report the measured relative viability for CC1(C)CCC(c2ccc(Cl)cc2)=C(CN2CCN(c3ccc(C(=O)NS(=O)(=O)c4ccc(N[C@H](CCN5CCOCC5)CSc5ccccc5)c(S(=O)(=O)C(F)(F)F)c4)cc3)CC2)C1 [Navitoclax] + N=C(N)NC(=N)NCCc1ccccc1 [Phenformin] (partner 250 µM)
Out: 0.348
